The origin of these recorded values is patent US20250042994A1.

# target: T1, Human CD19-his protein (human, UniProt P15391 20-291)
# T1 construct: bought protein; also called recombinant human CD19-His; CD19 full-length protein; not shown: His tag
# T1 sequence (looked up): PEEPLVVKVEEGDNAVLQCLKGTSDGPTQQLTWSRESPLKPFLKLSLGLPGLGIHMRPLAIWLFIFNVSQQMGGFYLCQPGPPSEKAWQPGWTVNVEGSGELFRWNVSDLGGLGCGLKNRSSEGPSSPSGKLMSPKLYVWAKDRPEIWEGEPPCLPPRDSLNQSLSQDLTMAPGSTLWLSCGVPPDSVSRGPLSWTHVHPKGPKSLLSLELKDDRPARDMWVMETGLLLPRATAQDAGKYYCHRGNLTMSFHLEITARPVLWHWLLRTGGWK
# test.name: ELISA, coated human CD19-His

# binder, OD450 at 0.10 nM (OD450)
measured = [
    ("F3.121.4-L1H2 (antibody, mouse IgG1, kappa, V domains shown, humanized antibody of F3.121.4, VL1+VH2, murine IgG1 constant regions) VH: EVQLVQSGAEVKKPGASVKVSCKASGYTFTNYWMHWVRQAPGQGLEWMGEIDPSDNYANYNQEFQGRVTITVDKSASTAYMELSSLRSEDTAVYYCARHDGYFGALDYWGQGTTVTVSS VL: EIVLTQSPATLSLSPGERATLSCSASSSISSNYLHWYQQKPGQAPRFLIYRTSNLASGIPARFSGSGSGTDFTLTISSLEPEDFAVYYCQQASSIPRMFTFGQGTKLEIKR", 1.7),
    ("F3.121.4-L3H1 (antibody, mouse IgG1, kappa, V domains shown, humanized antibody of F3.121.4, VL3+VH1, murine IgG1 constant regions) VH: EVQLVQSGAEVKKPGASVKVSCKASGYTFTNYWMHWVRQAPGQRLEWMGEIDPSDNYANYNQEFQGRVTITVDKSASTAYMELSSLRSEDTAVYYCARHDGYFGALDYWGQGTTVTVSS VL: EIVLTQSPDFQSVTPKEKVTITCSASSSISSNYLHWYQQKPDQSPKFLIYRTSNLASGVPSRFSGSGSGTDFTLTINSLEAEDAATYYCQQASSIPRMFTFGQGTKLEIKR", 1.62),
    ("F3.121.4-L1H1 (antibody, mouse IgG1, kappa, V domains shown, humanized antibody of F3.121.4, VL1+VH1, murine IgG1 constant regions) VH: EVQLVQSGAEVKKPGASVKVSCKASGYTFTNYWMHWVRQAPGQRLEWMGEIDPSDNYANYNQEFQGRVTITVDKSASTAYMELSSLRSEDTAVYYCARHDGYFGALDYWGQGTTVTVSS VL: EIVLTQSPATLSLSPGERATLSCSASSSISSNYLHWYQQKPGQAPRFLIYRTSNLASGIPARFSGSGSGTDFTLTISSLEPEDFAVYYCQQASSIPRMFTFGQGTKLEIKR", 1.79),
]
